Provide the recorded growth for the entries that follow.
# Test system: SR leukemia
# experimentNotes: NCI-60 one-dose screen, 48 h (100 = growth as untreated, 0 = no growth, -100 = all killed)
# assayConditions: 10 µM unless noted
About 83,000 compounds went through this panel and 20% of them were active in at least one assay; those are over-represented in the sample as a whole. Calls of active or inactive are those of the source. The calls were made as follows: active = growth percent below 10; inactive = the rest.

Would you please look over these solved cases?
compound	growth
CCOC(=O)COc1c(OC)c(OC)cc2oc(-c3cccc(C(=O)Nc4ccc(Cl)cc4)c3)cc(=O)c12	18.4% (inactive)
Cc1cc(C)cc(C(=O)Nc2cccc(-c3cn(-c4ccc(S(N)(=O)=O)cc4)nn3)c2)c1	51.6% (inactive)
C=C1CCC2C3(C)COC(c4ccc(F)cc4)OC3CCC2(C)C1CC(O)C1=CCOC1=O (stereo not given)	21.6% (inactive)
Cc1cc2c(cc1Cl)C(=O)/C(=C/c1ccc(F)cc1)O2	89.1% (inactive)
O=C(c1ccccc1)c1ccc2nc(-c3ccc(F)cc3)[nH]c2c1	27.9% (inactive)
C=C1CC[C@@H]2[C@]3(C)COC(c4cn[nH]c4-c4cccc(Br)c4)O[C@@H]3CC[C@@]2(C)[C@@H]1C/C=C1/C(=O)OCC1O (stereo not given in full)	12.7% (inactive)
Clc1cccc(Cl)c1/C=C/c1cc(/C=C/c2ccc(Br)cc2)c2ccccc2n1	92.4% (inactive)
CC(C)c1ccc2c(N)c(C(=O)Nc3ccc(C(F)(F)F)cn3)sc2n1	41.9% (inactive)

Hello, I would appreciate it if you could give growth for each entry below.
1. O=C(c1ccc(OCCN2CCOCC2)cc1)C1[C@H](c2ccc(Cl)cc2)[C@@H](c2ccccc2)NC12C(=O)Nc1ccc(Cl)cc12 (stereo not given in full)
2. CCC(C)(C)c1ccc(OCCCCCCN2CCN(c3ccncc3)CC2)cc1
3. CCCn1cc(-c2nc(Nc3ccc(C(=O)NCCCCNc4cccc5c4C(=O)N(C4CCC(=O)NC4=O)C5=O)cc3)nc3[nH]ccc23)cn1 (stereo not given)
4. COc1ccc(/C=C2\C(=N)N=C(SCc3nc4ccccc4[nH]3)NC2=O)cc1
5. CC(C)CCNC(=O)N/C(N)=N/c1nc2ccccc2s1

1: -46.3% (active); 2: -27.5% (active); 3: 25.1% (inactive); 4: 103% (inactive); 5: 34.4% (inactive)

Provide the reported growth of each entry below, same order.
1. COc1ccc(-c2ccc(SCC(=O)NCCc3ccc(S(N)(=O)=O)cc3)nn2)cc1
2. C=C1CC[C@@H]2[C@]3(C)COC(c4cn[nH]c4-c4ccc(OC)cc4)O[C@@H]3CC[C@@]2(C)[C@@H]1C/C=C1/C(=O)OCC1O (stereo not given in full)

1. 63.9% (inactive)
2. -29.9% (active)

----------
# Test system: SNB-19 CNS
# experimentNotes: NCI-60 one-dose screen, 48 h (100 = growth as untreated, 0 = no growth, -100 = all killed)
# assayConditions: 10 µM unless noted
About 83,000 compounds went through this panel and 20% of them were active in at least one assay; those are over-represented in the sample as a whole.
Classes are defined on growth with ranges class 1: < 30%; class 2: ≥ 30% and < 70%; class 3: ≥ 70%

Example cases with answers are listed next.
molecule	targetDesc	categoryLabel
COc1ccc(C(=O)/C=C/c2cccnc2)cc1S(N)(=O)=O	SNB-19 CNS	class 2
CC(C)CCNC(=O)N/C(N)=N/c1nc2ccccc2s1	SNB-19 CNS	class 2
C=C1CCC2C3(C)COC(c4ccccc4)OC3CCC2(C)C1CC(NCc1ccccc1)C1=CCOC1=O (stereo unspecified)	SNB-19 CNS	class 3
COc1ccc(/C=C/c2nc3ccccc3n3c(-c4ccc(Cl)cc4)nnc23)cc1	SNB-19 CNS	class 3
O=C(O)c1cccc(-c2ccc(/C=N/NC(=O)c3[nH]c4ccc(Br)cc4c3-c3ccccc3)s2)c1	SNB-19 CNS	class 1
COc1cc2oc(-c3cccc(NC(=O)[C@H](Cc4ccccc4)NC(=O)OC(C)(C)C)c3)cc(=O)c2c(OC)c1OC	SNB-19 CNS	class 2
CN1CCN(c2ccc3c(c2)nc(NNC(=O)c2ncccn2)c2cccn23)CC1	SNB-19 CNS	class 1
Cn1cc(NC(=O)c2cc(NC(=O)c3ccc(C#Cc4ccccc4)cc3)cn2C)cc1C(=O)NCCCN1CCOCC1	SNB-19 CNS	class 3
COc1c(F)ccc(C(=O)Nc2ccc3nc(NC(=O)C4CCCN(S(=O)(=O)c5ccc(Br)s5)C4)sc3c2)c1F (stereo unspecified)	SNB-19 CNS	class 3
COc1cc2c(c(OC)c1OC)C(=O)CC(c1cccc(NC(=O)c3cc(NC(=O)[C@H](CO)NC(=O)OC(C)(C)C)ccc3Cl)c1)O2 (stereo partly specified)	SNB-19 CNS	class 2

Class (by measured growth) for O=C(O)Cn1c(O)c(/C=C2/C=c3cc4c(cc3=NC2=O)OCCO4)sc1=S
class 3

Exam item: assign COc1ccc2oc(=O)c(C3(C)NC(=O)c4c(/C=C/C(=O)OC(C)(C)C)cccc4N3)cc2c1 (stereo unspecified) to the correct category.
class 2

Class? Entry: CN(C)CCOc1ccc(C(=O)C2[C@H](c3ccc(Cl)cc3)[C@@H](c3ccccc3)NC23C(=O)Nc2ccc(Br)cc23)cc1 (stereo partly specified)
class 2

Exam item: assign O=C(CN1C(=O)/C(=C/c2ccccc2Cl)SC1=S)N1CCOCC1 to the correct category.
class 3

From: PubChem BioAssay (NCI)
